biological target: recombinant soluble homotrimeric HA of A/California/4/09 (H1N1) (Influenza A virus A/California/04/2009(H1N1)); experiment: HA microarray, BCC supernatant; conditions: remark: other sources report otherwise
Here the recorded Trimeric HA Binding: RLU is given for each entry.
measurement-label: Trimeric HA Binding: RLU (RLU)

{"binder": "TCN-550 (5096_F06) (antibody, V domains shown) VH: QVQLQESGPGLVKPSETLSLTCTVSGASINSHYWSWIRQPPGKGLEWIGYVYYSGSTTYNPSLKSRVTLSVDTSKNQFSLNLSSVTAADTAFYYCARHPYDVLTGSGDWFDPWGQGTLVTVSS VL: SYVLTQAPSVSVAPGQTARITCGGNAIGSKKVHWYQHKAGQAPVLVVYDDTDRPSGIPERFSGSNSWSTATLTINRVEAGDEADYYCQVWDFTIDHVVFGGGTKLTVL", "measurement-label": "Trimeric HA Binding: RLU", "experimental-result": 454}
{"binder": "TCN-551 (5243_D01) (antibody, V domains shown) VH: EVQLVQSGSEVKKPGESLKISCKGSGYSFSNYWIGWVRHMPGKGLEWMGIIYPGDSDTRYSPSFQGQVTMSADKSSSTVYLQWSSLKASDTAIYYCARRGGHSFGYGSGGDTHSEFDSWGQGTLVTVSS VL: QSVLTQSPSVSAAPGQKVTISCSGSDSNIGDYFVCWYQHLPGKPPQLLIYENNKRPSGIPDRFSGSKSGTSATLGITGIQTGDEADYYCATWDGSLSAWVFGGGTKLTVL", "measurement-label": "Trimeric HA Binding: RLU", "experimental-result": 53400}
{"binder": "TCN-538 (3206_O17) (antibody, V domains shown) VH: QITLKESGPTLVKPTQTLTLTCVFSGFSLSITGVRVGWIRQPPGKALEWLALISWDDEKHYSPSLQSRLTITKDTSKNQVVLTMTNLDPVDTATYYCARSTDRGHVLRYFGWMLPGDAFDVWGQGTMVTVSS VL: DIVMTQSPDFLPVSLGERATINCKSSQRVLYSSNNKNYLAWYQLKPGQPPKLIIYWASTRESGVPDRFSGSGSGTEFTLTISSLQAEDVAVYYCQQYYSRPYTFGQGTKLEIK", "measurement-label": "Trimeric HA Binding: RLU", "experimental-result": 13800}
